The origin of these recorded values is PubChem BioAssay AID1963431.

# Tested on: Rh18 complex spheroid viability, percent test/control
# Measurement Notes: Anticancer human tumor Rh18 cell line growth inhibition [Asc];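 further: spheroids exposed to compound for 7 days; 100% = DMSO vehicle control wells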
# Condition Notes: second compound 0.1 µM; first compound 0.0316 µM; hits give low values
Measured Metric: viability, T/C (%)
Form entry: value (%) — number only.

These solved cases illustrate the format of a correct answer.
I'm curious: which viability, T/C was measured for O=C(c1cc(Cc2n[nH]c(=O)c3ccccc23)ccc1F)N1CCN(C(=O)C2CC2)CC1 + Cc1c(S(C)(=O)=O)c(-c2cc(F)cc(N3CCN(c4ccc(NS(=O)(=O)c5ccc(NC(CCN6CCC(C(=O)OCCCP(=O)(O)O)CC6)CSc6ccccc6)c(S(=O)(=O)C(F)(F)F)c5)cc4)CC3)c2)c(-c2ccc(Cl)cc2)n1C(C)C tested on Rh18 complex spheroid viability, percent test/control?
14.8

I'm curious: which viability, T/C was measured for CCN1CCN(Cc2ccc(Nc3ncc(F)c(-c4cc(F)c5nc(C)n(C(C)C)c5c4)n3)nc2)CC1 + Cc1c(S(C)(=O)=O)c(-c2cc(F)cc(N3CCN(c4ccc(NS(=O)(=O)c5ccc(NC(CCN6CCC(C(=O)OCCCP(=O)(O)O)CC6)CSc6ccccc6)c(S(=O)(=O)C(F)(F)F)c5)cc4)CC3)c2)c(-c2ccc(Cl)cc2)n1C(C)C tested on Rh18 complex spheroid viability, percent test/control?
12.1

I'm curious: which viability, T/C was measured for C=CC(=O)N1CCN(c2nc(=O)n(-c3c(C)ccnc3C(C)C)c3nc(-c4c(O)cccc4F)c(F)cc23)C(C)C1 (configuration not stated) + CNC(C)C(=O)NC1CN(S(=O)(=O)c2cccc(S(=O)(=O)N3CCC4CCC(C(=O)NC(c5ccccc5)c5ccccc5)N4C(=O)C(NC(=O)C(C)NC)C3)c2)CCC2CCC(C(=O)NC(c3ccccc3)c3ccccc3)N2C1=O tested on Rh18 complex spheroid viability, percent test/control?
49.4

Continuing:
I'm curious: which viability, T/C was measured for O=C(c1ccc(F)c(F)c1Nc1ccc(I)cc1F)N1CC(O)([C@@H]2CCCCN2)C1 + CNC(C)C(=O)NC1CN(S(=O)(=O)c2cccc(S(=O)(=O)N3CCC4CCC(C(=O)NC(c5ccccc5)c5ccccc5)N4C(=O)C(NC(=O)C(C)NC)C3)c2)CCC2CCC(C(=O)NC(c3ccccc3)c3ccccc3)N2C1=O tested on Rh18 complex spheroid viability, percent test/control?
36.1

I'm curious: which viability, T/C was measured for Cn1ncnc1[C@H]1c2n[nH]c(=O)c3cc(F)cc(c23)N[C@@H]1c1ccc(F)cc1 + CNC(C)C(=O)NC1CN(S(=O)(=O)c2cccc(S(=O)(=O)N3CCC4CCC(C(=O)NC(c5ccccc5)c5ccccc5)N4C(=O)C(NC(=O)C(C)NC)C3)c2)CCC2CCC(C(=O)NC(c3ccccc3)c3ccccc3)N2C1=O tested on Rh18 complex spheroid viability, percent test/control?
14.8

I'm curious: which viability, T/C was measured for C#Cc1c(F)ccc2cc(O)cc(-c3ncc4c(N5CC6CCC(C5)N6)nc(OCC56CCCN5CC(F)C6)nc4c3F)c12 (configuration not stated) + Cc1c(S(C)(=O)=O)c(-c2cc(F)cc(N3CCN(c4ccc(NS(=O)(=O)c5ccc(NC(CCN6CCC(C(=O)OCCCP(=O)(O)O)CC6)CSc6ccccc6)c(S(=O)(=O)C(F)(F)F)c5)cc4)CC3)c2)c(-c2ccc(Cl)cc2)n1C(C)C tested on Rh18 complex spheroid viability, percent test/control?
14.1

I'm curious: which viability, T/C was measured for C#Cc1c(F)ccc2cc(O)cc(-c3ncc4c(N5CC6CCC(C5)N6)nc(OCC56CCCN5CC(F)C6)nc4c3F)c12 (configuration not stated) + CNC(C)C(=O)NC1CN(S(=O)(=O)c2cccc(S(=O)(=O)N3CCC4CCC(C(=O)NC(c5ccccc5)c5ccccc5)N4C(=O)C(NC(=O)C(C)NC)C3)c2)CCC2CCC(C(=O)NC(c3ccccc3)c3ccccc3)N2C1=O tested on Rh18 complex spheroid viability, percent test/control?
40.1
